B1: VH:VL chains; a variant is named by its letters at X, in order (parent)
chain 1: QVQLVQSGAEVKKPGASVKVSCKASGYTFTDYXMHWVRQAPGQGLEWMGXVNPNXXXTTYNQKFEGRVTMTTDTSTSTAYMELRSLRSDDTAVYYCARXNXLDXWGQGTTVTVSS
chain 2: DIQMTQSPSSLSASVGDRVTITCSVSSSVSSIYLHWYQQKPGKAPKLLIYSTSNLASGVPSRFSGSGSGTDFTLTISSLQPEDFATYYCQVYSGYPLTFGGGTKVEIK

# Variants of: B1
# experiment: yeast display scFab, FACS + sequencing
readout.name: non-specific binding call

YAGKNAVV : no binding
ARAGGAAA : binds
YREGDASD : no binding
YRRRGVSA : binds

Return value of non-specific binding call for input YRRRSSSS , no commentary.
binds

Please report non-specific binding call for the following variant: VRRTSAAS
binds

Determine its reported non-specific binding call: YRGGASAA
binds

Quick one: give measured non-specific binding call for FRAGGSLF
binds

Find the measured non-specific binding call of VGGTGDVF and report it.
no binding

Note non-specific binding call for the variant shown: DEGGGAGS
no binding

Look up and state reported non-specific binding call for SEARSDAS
no binding
